All values here come from patent US20100119506A1.

# study.system: T1, Human PAR-2 on cells (human, UniProt P55085 26-397)
# T1 construct: also called HEK-PAR-2 (#3); human PAR-2 transfected HEK293 cells
# T1 sequence: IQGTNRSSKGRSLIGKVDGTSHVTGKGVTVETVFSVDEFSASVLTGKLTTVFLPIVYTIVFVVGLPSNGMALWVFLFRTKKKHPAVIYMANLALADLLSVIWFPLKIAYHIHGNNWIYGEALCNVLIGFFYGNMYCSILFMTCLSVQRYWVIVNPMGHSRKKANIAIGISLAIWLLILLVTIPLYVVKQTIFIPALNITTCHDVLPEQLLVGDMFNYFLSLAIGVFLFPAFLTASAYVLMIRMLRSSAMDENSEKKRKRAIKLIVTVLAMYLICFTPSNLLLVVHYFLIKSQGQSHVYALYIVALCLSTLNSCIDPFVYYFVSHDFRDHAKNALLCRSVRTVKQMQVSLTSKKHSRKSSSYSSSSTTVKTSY
# measurement.protocol: cell binding of IgG4_Pro, HEK-PAR-2 (#3)
pEC50: −log10 of the molar value.
Entries and their measured pEC50 follow.
property: pEC50

binder="Ab5003 IgG4_Pro (antibody, V domains shown, IgG4_Pro (human IgG4 constant regions, Ser241Pro hinge), lambda; also called IgG4p Ab5003) VH: QVQLVESGGGLVQPGGSLRLSCAASGFTFSSYAMNWVRQAPGKGLEWVSAISYKGHLTGYADSVKGRFTISRDNSKNTLYLQMNSLRAEDTAVYYCARIQNDPMDVWGQGTLVTVSS VL: DIELTQPPSVSVAPGQTARISCSGDNLGKKYVQWYQQKPGQAPVLVIYDDSNRPSGIPERFSGSNSGNTATLTISGTQAEDEADYYCSSWDVGSDGWVFGGGTKLTVLG" property=pEC50 test_value=9.30
binder="Ab5149 IgG4_Pro (cross-cloned: light chain of Ab4999 with heavy chain of Ab4997) (antibody, V domains shown, IgG4_Pro format) VH: QVQLVESGGGLVQPGGSLRLSCAASGFTFSSYAMNWVRQAPGKGLEWVSAISYNGKLKGYADSVKGRFTISRDNSKNTLYLQMNSLRAEDTAVYYCARIQNDPMDVWGQGTLVTVSS VL: DIELTQPPSVSVAPGQTARISCSGDNLGKKYVQWYQQKPGQAPVLVIYDDSNRPSGIPERFSGSNSGNTATLTISGTQAEDEADYYCQTWDYSSIRDETNVFGGGTKLTVLG" property=pEC50 test_value=9.15
binder="Ab5007 IgG4_Pro (antibody, V domains shown, IgG4_Pro (human IgG4 constant regions, Ser241Pro hinge), lambda; also called IgG4p Ab5007) VH: QVQLVESGGGLVQPGGSLRLSCAASGFTFSSYAMNWVRQAPGKGLEWVSAISFSGHLTGYADSVKGRFTISRDNSKNTLYLQMNSLRAEDTAVYYCARIQNDPMDVWGQGTLVTVSS VL: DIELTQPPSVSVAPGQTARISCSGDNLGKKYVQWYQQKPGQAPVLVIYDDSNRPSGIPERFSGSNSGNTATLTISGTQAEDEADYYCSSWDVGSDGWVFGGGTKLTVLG" property=pEC50 test_value=9.30
